- test-system: Cathepsin D (Cat D) (Homo sapiens, UniProt P07339)
- Construct: Recombinant Cat D was expressed in CHO cells; made in house; host or cells: CHO cells
- Sequence (P07339 65-412, species assumed): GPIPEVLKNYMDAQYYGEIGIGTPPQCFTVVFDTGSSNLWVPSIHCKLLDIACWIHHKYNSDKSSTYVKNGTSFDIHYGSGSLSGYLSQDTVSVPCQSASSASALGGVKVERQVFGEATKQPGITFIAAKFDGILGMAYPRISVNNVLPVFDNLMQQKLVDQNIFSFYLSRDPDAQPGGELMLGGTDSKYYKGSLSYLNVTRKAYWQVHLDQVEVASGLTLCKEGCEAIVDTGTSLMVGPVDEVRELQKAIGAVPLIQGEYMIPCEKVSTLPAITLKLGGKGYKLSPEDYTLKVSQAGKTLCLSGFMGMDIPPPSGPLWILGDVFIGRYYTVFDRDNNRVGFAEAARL
- assay-info: In vitro enzymatic Cathepsin D (Cat D) FRET assay
- Assay type: biochemical
- particulars: read-out: CatD IC50
measurement-label: IC50

State, in one line, measured IC50 of Cc1cc(C(F)F)cnc1C(=O)Nc1ccc(F)c([C@]2(CF)CS(=O)(=O)C3(CCC3)C(N)=N2)c1
233 µM

----------
Parameter pIC50: see the listing below.
- test-system: UniProtKB P56817
- assay-info: In vitro enzymatic BACE FRET assay
- Format: biochemical
- particulars: average IC50, enzyme assay; read-out: BACE1 FRET assay IC50
Value format note: pIC50 is -log10 of concentration (mol/L); just state the number.

Look over these answered cases.
smiles-notation: CC1(C)C(N)=N[C@](CF)(c2cc(NC(=O)c3ccc(F)cn3)ccc2F)CS1(=O)=O
test-system: UniProtKB P56817
observed: 8.77
//
smiles-notation: CC1(C)C(N)=N[C@](C)(c2cc(Oc3ncccc3Cl)ccc2F)CS1(=O)=O
test-system: UniProtKB P56817
observed: 7.01
//
smiles-notation: Cc1cc(Cl)cnc1C(=O)Nc1ccc(F)c([C@]2(CF)CS(=O)(=O)C3(CCC3)C(N)=N2)c1
test-system: UniProtKB P56817
observed: 9.10

Provide only the value of recorded pIC50 for CC1(C)C(N)=N[C@](CF)(c2cc(Nc3ncc(F)c4cc(OCC5CC5)cnc34)ccc2F)CS1(=O)=O
8.92

Using the record for CC#CCOc1cnc2c(Nc3ccc(F)c([C@]4(C)CS(=O)(=O)C(C)(C)C(N)=N4)c3)nccc2n1 , state its measured pIC50.
9.49

Read off the recorded pIC50 for COc1ncc(NC(=O)c2ccccn2)cc1[C@]1(C)CS(=O)(=O)C(C)(C)C(N)=N1
6.53

Provide one value: measured pIC50 of Cc1nc(Oc2ccc(F)c([C@]3(C)CS(=O)(=O)C(C)(C)C(N)=N3)c2)ccc1C#N
5.57

----------
// IC50 lookup, one value per entry
- test-system: Beta Secretase enzyme (BACE1) (Homo sapiens, UniProt P56817)
- Sequence (P56817 46-501): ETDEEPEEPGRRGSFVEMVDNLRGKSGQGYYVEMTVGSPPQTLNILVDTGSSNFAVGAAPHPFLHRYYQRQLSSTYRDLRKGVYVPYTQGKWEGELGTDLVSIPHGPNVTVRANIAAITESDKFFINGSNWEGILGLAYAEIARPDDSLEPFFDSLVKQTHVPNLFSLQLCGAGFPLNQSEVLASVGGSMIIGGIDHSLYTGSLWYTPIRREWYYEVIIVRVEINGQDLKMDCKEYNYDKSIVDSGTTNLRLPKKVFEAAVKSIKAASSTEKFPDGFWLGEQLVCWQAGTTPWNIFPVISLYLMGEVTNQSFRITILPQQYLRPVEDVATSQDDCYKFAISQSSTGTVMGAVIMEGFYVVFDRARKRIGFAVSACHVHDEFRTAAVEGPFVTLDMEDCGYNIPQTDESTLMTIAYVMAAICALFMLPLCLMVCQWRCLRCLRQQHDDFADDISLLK
- assay-info: In vitro enzymatic BACE FRET assay
- Assay type: biochemical
- particulars: average IC50, enzyme assay; read-out: BACE1 FRET assay IC50
Use nM as the unit, but write only the number.

See these solved cases before continuing.
compound: CCOc1cnc2c(Nc3ccc(F)c([C@]4(CF)CS(=O)(=O)C5(CCC5)C(N)=N4)c3)ncc(F)c2c1
IC50 / nM: 3.82
--
compound: CC1(C)C(N)=N[C@](C)(c2cc(Oc3cc(N)nc(N)n3)ccc2F)CS1(=O)=O
IC50 / nM: 318
--
compound: CC1(C)C(N)=N[C@](C)(c2cc(NC(=O)c3cnc(OCC(F)(F)F)cn3)ccc2F)CS1(=O)=O
IC50 / nM: 0.45
--
compound: CC1(C)C(N)=N[C@](C)(c2cc(Oc3ncccn3)ccc2F)CS1(=O)=O
IC50 / nM: 125
--
compound: COc1cnc(C(=O)Nc2ccc(F)c([C@]3(C)CS(=O)(=O)C(C)(C)C(N)=N3)c2)c(C)c1
IC50 / nM: 2.83
--
compound: C[C@@]1(c2cc(Br)ccc2F)CS(=O)(=O)C2(CC(O)C2)C(N)=N1 (stereo partly shown)
IC50 / nM: 1190
--
compound: C[C@]1(F)C(N)=N[C@](C)(c2cc(Nc3nccc4cc(Cl)cnc34)ccc2F)CS1(=O)=O
IC50 / nM: 0.33
--
compound: Cc1cc(-c2cnc(Oc3ccc(F)c([C@]4(C)CS(=O)(=O)C(C)(C)C(N)=N4)c3)c(F)c2)on1
IC50 / nM: 650
--
compound: CC1(C)C(N)=N[C@](C)(c2cc(Oc3cccc(C#N)n3)ccc2F)CS1(=O)=O
IC50 / nM: 91.9
--
compound: CC1(C)C(N)=N[C@](CF)(c2cc(Nc3nccc4cc(Cl)cnc34)ccc2F)CS1(=O)=O
IC50 / nM: 0.37

Could you please provide reported IC50 for CC1(C)C(N)=N[C@](C)(c2cc(NCc3nn(C(F)F)cc3Cl)ccc2F)CS1(=O)=O ? Thanks!
2.27

Report IC50, nothing else, for this compound: CC1(C)C(N)=N[C@](C)(c2cc(Oc3cnccn3)ccc2F)CS1(=O)=O
93.5

Return reported IC50. Input compound: C[C@]1(F)C(N)=N[C@](C)(c2cc(NC(=O)c3ncc(C(F)F)cc3Cl)ccc2F)CS1(=O)=O
2.77

Return reported IC50. Input compound: CC1[C@@](C)(c2cc(NC(=O)c3ccc(Cl)cn3)ccc2F)N=C(N)[C@](C)(F)S1(=O)=O (stereo partly shown)
18.1

Please supply the value of reported IC50 for the item CC1(C)C(N)=N[C@](C)(c2cc(Oc3nccc4ccccc34)ccc2F)CS1(=O)=O
1050

Provide only the value of recorded IC50 for COc1cnc(C(=O)Nc2ccc(F)c([C@@]3(C)N=C(N)C(C)(C)S(=O)(=O)C3F)c2)c(Cl)c1 (stereo partly shown)
1.4

----------
Documented pIC50 across a set of compounds
- System: Aβ40 in conditioned medium of cells stably expressing Amyloid Precursor Protein (APP)
- assay-info: In vitro BACE cell-based assay (HEK cell assay), Aβ40 sandwich ELISA
- particulars: Homo sapiens, HEK293
Quick note: pIC50 values are minus log10 of concentrations in mol/L.

smiles-notation: CC1(C)C(N)=N[C@](CF)(c2cc(NC(=O)c3ncc(Cl)nc3Cl)ccc2F)CS1(=O)=O
pIC50: 6.00
//
smiles-notation: Cc1cc(Cl)cnc1C(=O)Nc1ccc(F)c([C@@]2(C)N=C(N)C3(CC3)S(=O)(=O)[C@@H]2F)c1
pIC50: 8.57
//
smiles-notation: C=C(C)c1cc(Cl)cnc1C(=O)Nc1ccc(F)c([C@]2(CF)CS(=O)(=O)C(C)(C)C(N)=N2)c1
pIC50: 7.24

Now for a further compound.
Note pIC50 for the compound shown: CC1(C)C(N)=N[C@](CF)(c2cc(NC(=O)c3cn4cc(Cl)ccc4n3)ccc2F)CS1(=O)=O
7.44

----------
- Tested on: Aβ40 in conditioned medium of cells stably expressing Amyloid Precursor Protein (APP)
- assay-info: In vitro BACE cell-based assay (HEK cell assay), Aβ40 sandwich ELISA
- particulars: Homo sapiens, HEK293; average IC50, HEK cells
measurement-label: pIC50
Note: pIC50 values are expressed as the negative base-10 logarithm of concentration in M.

// below: answered compounds
compound: Cc1cc(OC(F)F)cnc1C(=O)Nc1ccc(F)c([C@@]2(CF)CS(=O)(=O)C3(CC3)C(N)=N2)c1 [Example 218]
pIC50: 6.08
--
compound: Cc1cc(OC(F)F)cnc1C(=O)Nc1ccc(F)c([C@@]2(C)N=C(N)C3(CC3)S(=O)(=O)[C@@H]2F)c1 [Example 202]
pIC50: 8.44
--
compound: COc1cnc(C(=O)Nc2ccc(F)c([C@]3(C)CS(=O)(=O)[C@](C)(F)C(N)=N3)c2)cn1 [Example 176]
pIC50: 6.60

Return value of pIC50 for input COc1cnc2c(Nc3ccc(F)c([C@@]4(C)N=C(N)C5(CC5)S(=O)(=O)[C@H]4F)c3)nccc2n1 [Example 208] , no commentary.
7.97

Given Cc1cc(OC(F)F)cnc1C(=O)Nc1ccc(F)c([C@@]2(C)N=C(N)C3(CC3)S(=O)(=O)[C@H]2F)c1 [Example 203] , respond with its pIC50.
8.64

----------
- test-system: Beta Secretase enzyme (BACE1) (Homo sapiens, UniProt P56817)
- assay-info: In vitro enzymatic BACE FRET assay
- Assay type: biochemical
- particulars: read-out: BACE1 FRET assay IC50
measurement-label: pIC50
API: returns pIC50 as number; meaning -log10 of concentration in mol/L.

molecule: Cc1cc(OC(F)F)cnc1C(=O)Nc1ccc(F)c([C@@]2(C)N=C(N)C3(CCC3)S(=O)(=O)[C@@H]2F)c1
test-system: Beta Secretase enzyme (BACE1) (Homo sapiens, UniProt P56817)
measurement-label: pIC50
observed: 8.53
--
molecule: COc1cnc(C(=O)Nc2ccc(F)c(C3(CF)CS(=O)(=O)C(C)(C)C(N)=N3)c2)cn1 (stereo not drawn)
test-system: Beta Secretase enzyme (BACE1) (Homo sapiens, UniProt P56817)
measurement-label: pIC50
observed: 8.42
--
molecule: Cc1c(C(=O)Nc2ccc(F)c([C@]3(CF)CS(=O)(=O)C(C)(C)C(N)=N3)c2)nc2ccc(F)cn12
test-system: Beta Secretase enzyme (BACE1) (Homo sapiens, UniProt P56817)
measurement-label: pIC50
observed: 7.93
--
molecule: COc1cnc2c(Nc3ccc(F)c([C@]4(C)CS(=O)(=O)C(C)(C)C(N)=N4)c3)nccc2c1
test-system: Beta Secretase enzyme (BACE1) (Homo sapiens, UniProt P56817)
measurement-label: pIC50
observed: 8.27
--
molecule: Cc1cc(OC(F)F)cnc1C(=O)Nc1ccc(F)c([C@@]2(CF)CS(=O)(=O)C3(CCC3)C(N)=N2)c1
test-system: Beta Secretase enzyme (BACE1) (Homo sapiens, UniProt P56817)
measurement-label: pIC50
observed: 5.45
--
molecule: CC1(C)C(N)=N[C@](CF)(c2cc(NC(=O)c3cnc(OCC(F)(F)F)cn3)ccc2F)CS1(=O)=O
test-system: Beta Secretase enzyme (BACE1) (Homo sapiens, UniProt P56817)
measurement-label: pIC50
observed: 9.22
--
molecule: Cc1nc2c(Nc3ccc(F)c([C@]4(C)CS(=O)(=O)C(C)(C)C(N)=N4)c3)nccc2s1
test-system: Beta Secretase enzyme (BACE1) (Homo sapiens, UniProt P56817)
measurement-label: pIC50
observed: 7.76
--
molecule: Cc1cc(Cl)cnc1C(=O)Nc1ccc(F)c([C@]2(C)CS(=O)(=O)[C@@](C)(F)C(N)=N2)c1
test-system: Beta Secretase enzyme (BACE1) (Homo sapiens, UniProt P56817)
measurement-label: pIC50
observed: 9.40

Answer with the recorded pIC50 for the molecule listed here: Cc1cc(OC(F)F)cnc1C(=O)Nc1ccc(F)c([C@]2(CF)CS(=O)(=O)C(C)(C)C(N)=N2)c1
8.79

Please list pIC50 recorded for the molecule CC1(C)C(N)=N[C@](C)(c2cc(NC(=O)c3nn(C(F)F)cc3Cl)ccc2F)CS1(=O)=O
8.76

Please indicate pIC50 recorded for N#Cc1cnc(C(=O)Nc2ccc(F)c([C@]3(CF)CS(=O)(=O)C4(CCC4)C(N)=N3)c2)c(Cl)c1
9.14

Specify pIC50 for CC1(C)C(N)=N[C@](C)(c2cc(Nc3nccc4cc(C#N)cnc34)ccc2F)CS1(=O)=O and stop.
9.27

Kindly indicate its recorded pIC50. Item: C[C@@]1(c2cc(NC(=O)c3ccc(Cl)cn3)ccc2F)CS(=O)(=O)CC(N)=N1
8.22

Please indicate pIC50 recorded for COc1cnc(C(=O)Nc2ccc(F)c([C@]3(CF)CS(=O)(=O)C4(CCC4)C(N)=N3)c2)c(C)c1
8.61

Read the entry Cc1cc(OC(F)F)cnc1C(=O)Nc1ccc(F)c([C@]2(C)CS(=O)(=O)C3(CCC3)C(N)=N2)c1 and write its reported pIC50.
8.51

Provenance of the data: patent US20140107109A1
